Assay: self-splicing fitness, log relative to wild type (ln ratio); higher = more splicing; Tetrahymena group I intron in knt gene, E. coli kanamycin selection, DiMSum; sequences stand for … in CUCUCU…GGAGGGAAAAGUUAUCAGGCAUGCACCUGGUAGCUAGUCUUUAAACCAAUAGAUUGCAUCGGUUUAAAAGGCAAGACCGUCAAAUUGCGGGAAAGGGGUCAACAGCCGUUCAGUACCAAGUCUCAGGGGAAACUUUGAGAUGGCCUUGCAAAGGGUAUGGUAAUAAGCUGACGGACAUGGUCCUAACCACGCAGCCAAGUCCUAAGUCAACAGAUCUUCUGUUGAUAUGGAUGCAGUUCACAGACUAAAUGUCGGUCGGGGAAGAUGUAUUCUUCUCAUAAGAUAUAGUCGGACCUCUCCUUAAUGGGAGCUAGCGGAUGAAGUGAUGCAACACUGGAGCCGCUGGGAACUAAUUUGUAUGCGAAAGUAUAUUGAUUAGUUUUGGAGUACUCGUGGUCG;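 further: selection with 25 µg/mL kanamycin versus none on LB agar overnight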
Conditions: 30 °C
# binarize self-splicing fitness (ln): threshold -3 inclusive, high side Condition met, low side Condition not met

macromolecule sequence	answer label
CCUAAGCAAUAUUACGAAUA	Condition not met
AAUGAGCAAUAUUACGGUGU	Condition not met
CCUGAGCAAUAUUACGGUGG	Condition not met
ACAGAGCAAUAUUACGAUCG	Condition met
UUUGAGCAAUAUUACGGAGC	Condition met
AUUGAGCAAUAUUACGUGUA	Condition not met
GACCAGCAAUAUUACGGGGU	Condition not met
CGAAAGCAAUAUUACGGCGG	Condition met
CAUAAGCAAUAUUACGGCCU	Condition not met
CUCUAGCAAUAUUACGAUCG	Condition met
CAAAAGCAAUAUUACGUUUC	Condition not met
CCGCAGCAAUAUUACGGCUA	Condition not met
GCGAAGCAAUAUUACGUACC	Condition met
CAUUAGCAAUAUUACGAGAC	Condition not met
UCUUAGCAAUAUUACGGUCC	Condition not met
GCUUAGCAAUAUUACGAUGU	Condition met
UGUAAGCAAUAUUACGGGCA	Condition met
GUGCAGCAAUAUUACGGUAC	Condition met
AUUAAGCAAUAUUACGUUAA	Condition met
AAACAGCAAUAUUACGAAAG	Condition met
GAUAAGCAAUAUUACGCAUU	Condition met
ACCAAGCAAUAUUACGUCCU	Condition met
CGAGAGCAAUAUUACGGAGA	Condition met
UGUUAGCAAUAUUACGAGCC	Condition met
UAUCAGCAAUAUUACGGGAC	Condition not met
AUUUAGCAAUAUUACGCAGA	Condition met
CACAAGCAAUAUUACGGUUA	Condition met
AAUAAGCAAUAUUACGCGGU	Condition not met
CGGGAGCAAUAUUACGAGGU	Condition not met
UUCAAGCAAUAUUACGCUCG	Condition not met
AAGGAGCAAUAUUACGUGCG	Condition met
AGAAAGCAAUAUUACGAUGU	Condition met
UUUGAGCAAUAUUACGCGAG	Condition met
GAAGAGCAAUAUUACGUCCA	Condition not met

* * *

Assay: self-splicing fitness, log relative to wild type (ln ratio); higher = more splicing; Tetrahymena group I intron in knt gene, E. coli kanamycin selection, DiMSum; sequences stand for … in CUCUCU…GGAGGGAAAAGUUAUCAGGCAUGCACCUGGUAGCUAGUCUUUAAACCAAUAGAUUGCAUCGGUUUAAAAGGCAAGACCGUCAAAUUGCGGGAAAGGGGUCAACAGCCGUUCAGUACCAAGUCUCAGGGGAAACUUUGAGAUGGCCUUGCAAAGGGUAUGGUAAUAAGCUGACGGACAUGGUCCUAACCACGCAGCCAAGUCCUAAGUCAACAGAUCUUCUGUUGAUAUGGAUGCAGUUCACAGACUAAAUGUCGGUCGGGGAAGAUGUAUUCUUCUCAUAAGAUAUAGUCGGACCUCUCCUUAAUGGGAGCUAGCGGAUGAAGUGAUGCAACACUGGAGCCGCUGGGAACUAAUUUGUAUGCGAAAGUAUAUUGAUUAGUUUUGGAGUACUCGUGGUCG
Conditions: 30 °C

macromolecule sequence	self-splicing fitness (ln)
CACGAGCAAUAUUACGAACG	-0.211
GGUUAGCAAUAUUACGUAGG	-2.51
CUUGAGCAAUAUUACGUGAC	-2.55
UAUGAGCAAUAUUACGUGCG	-1.06
CGGAAGCAAUAUUACGGCAU	-3.02
GGACAGCAAUAUUACGUAGC	-0.679
GACAAGCAAUAUUACGCGGU	-3.2
GGUGAGCAAUAUUACGAAAC	-2.41
UCUAAGCAAUAUUACGCCAA	-1.47
CGGCAGCAAUAUUACGAUCA	-1.08
UAAAAGCAAUAUUACGUCAG	-1.56
AGUUAGCAAUAUUACGCCAU	-3.41
CUGAAGCAAUAUUACGAUAA	-2.51
UACGAGCAAUAUUACGCGGC	-3.65
GAGCAGCAAUAUUACGACUC	-2.56
CUAAAGCAAUAUUACGACAG	0.277
GUGGAGCAAUAUUACGAUGC	-1.96
AUAUAGCAAUAUUACGGCAG	-1.74
AAUUAGCAAUAUUACGGGGG	-2.91
AAUGAGCAAUAUUACGCGCA	-2.54
GGUCAGCAAUAUUACGUAAU	-0.42
CUGAAGCAAUAUUACGGGUU	-3.71
AAACAGCAAUAUUACGUUGA	-2.58
CUUAAGCAAUAUUACGCGUA	-2.75
GUCUAGCAAUAUUACGACGA	-1.86
AGUGAGCAAUAUUACGACGU	-0.966
GCCGAGCAAUAUUACGCAAU	-2.79
CAUGAGCAAUAUUACGUCUC	-2.83
AUGAAGCAAUAUUACGCAAU	-1.03
AUCAAGCAAUAUUACGCCGC	-2.23
CGGAAGCAAUAUUACGAUCU	-1.11
AGCAAGCAAUAUUACGGCCU	-0.383
UAGAAGCAAUAUUACGUCGA	-1.61
GAAGAGCAAUAUUACGUGGU	-4.07
